Experiment: HPR concentration in the RPE of treated mice
Type: in vivo
Conditions: BL6/129, mouse, RPE (retinal pigment epithelium), intraperitoneal; 20 mg/kg HPR, i.p., daily for 28 days; read-out: steady-state levels of HPR in the RPE
Method: We examined the effects on HPR on enzymes or proteins of the visual cycle using in vitro biochemical assays. Specifically, the utilization of exogenous all-trans retinol by membranes prepared from bovine RPE was studied. […] Steady-state levels of HPR in the RPE (determined from mice which have been given 20 mg/kg HPR, i.p., daily for 28 days) range from 5-10 μM. […]
Reported property: concentration at 28 days

Just so you know, measured concentration at 28 days for CC1=C(/C=C/C(C)=C/C=C/C(C)=C/C(=O)Nc2ccc(O)cc2)C(C)(C)CCC1 [HPR, N-(4-hydroxyphenyl)retinamide] came out at 5 to 10 µM
